# PROCEDURE SUMMARY: soluble on expression in E. coli; label from the status in PepcDB or PDB records

| SEQUENCE INPUT | soluble on expression in E. coli |
| --- | --- |
| MSLTAYLHIGTTNTGNQEKQGFLMQNEEKLLQKAYIYPKSLRVANRHWALVDMVLELVQKEDILKKESVLSHITNERLLRAIENFKSESALHKDKKFIFSAEGIVWDFSTKKHVEILEKIMRELGFTQIYIIVYFRDTLGYLNSHCSQDHKNNMGYYSADFAPQDHPRKYIFDYEWICKTHAEVFGEENLIVRLLREDYVGGTLLKDFVYHLGLEWDESFVLKQTKNESFNLLGMELMSRLNQKDLKQDNLNSLLFMARRKFEGSKEKRLKFAVQKDIAKAYVDYFASSLEWVKNKYFPHKNSLFTPVNWEEYEQNYTLTHMLSKDWDDVADFIAQIIVSKNEIISSLKEQLELAREGHHHHHH | soluble |
| MSLSGIYERLQSLESLDLKSLDKNRTMLLIVDINKGFAKEGALYSDRIEKLISPISNLANYALNSGIRVKAFTDYHTEDSIELKAYPKHCMKDTDEWELVDELNLEGIEVIKKNSTNGFLEENFILNKEEIDNVIIVGDCTDICIYQLAISLRAEFNRVNKDGEIYVPKKLVDTFDMPMHKANFMNYVFLNSMLDNGVKVIEDIILDEGHHHHHH | soluble |
| GMSRGHCILAHGFESGPDALKVTALAEVAERLGWTHERPDFTDLDARRDLGQLGDVRGRLQRLLEIARAATEKGPVVLAGSSLGSYIAAQVSLQVPTRALFLMVPPTKMGPLPALDAAAVPISIVHAWHDELIPAADVIAWAQARSARLLLVDDGHRLGAHVQAASRAFAELLQSL | soluble |

====

# PROCEDURE SUMMARY: soluble on expression in E. coli; label from the status in PepcDB or PDB records

| SEQUENCE INPUT | soluble on expression in E. coli |
| --- | --- |
| MGREALGKCPVCNNETTITRITCEKCNTTIEGRFDLCKFCRLTPEQKLFVDVFIKCRGNIKEVEKELGVSYPTVKNKLEDVANALGHKSEEAPVEETNRKEILDKLYEGEISVDEALELLKG | not soluble |
| MSLASRRSKLIAVVVPQINNNMFVDTIQSLSDELARRGYHILLCVAGYTEQTEAELVATLLSRRPDGVVLTGIHHTIELKKVILNAAIPVVEIWDLTPTPLDMLVGFSHEKVGQATGEYLLSKGYRRPGLLWTADRRAAQRKQGLCSVLQRHAIHAVPQVDVPLPASLSLGRSGLSQLFDEGTFDVIVCSSDTLAQGAMMEAESRGLRIPHDLAVIGFGDLDFAASNRPSITTVSVDRRAIGQRAATLLADRIEQKPCAEAIVDIGFHLIGRESAEGHHHHHH | not soluble |

====

# PROCEDURE SUMMARY: soluble on expression in E. coli; label from the status in PepcDB or PDB records
VALUE KIND: soluble on expression in E. coli

| SEQUENCE INPUT | soluble on expression in E. coli |
| --- | --- |
| MRVLVTGGAGFIGSSFVRYIVNTTDWEVLVYDKLTYAGRLENLHDVIDRIGFMRGDIADEEQFGRVLTEFEPDVVVNFAAETHVDRSINEPAPFMRTNIIGVFTILEAIRKRIDQIVLLHVSTDEVYGDLWNTGKEATESDPLNPSSPYSASKASGDLLIKAYGRTYGLKYRIVRPCNNYGPYQHVEKLIPRTIIRILHGKPPVIYGDGSQIRDWLYVEDTARAIHVVLEKGVDGEIYNVCGGMASTVKDIVVNILESMGKPRDYLVYGKSRPGEDRRYAMKCDKIRNLGWAPHVTLKEGLKITVKWYIENRWWWRPLLDKRYVLADHPW | soluble |
| MLVDKTEFEAWMERIMGELYRISRKLDKAETREKHLNYLNGERLYDNQEVCLLLRISKRTLQRYRNNGVLKFYSIYHKTYYKESDLHEFIRNNFDENEIKRQAREDKLSESYPLPKE | not soluble |
| GIDPFTAPGQLECETAIAALNSCLRDLDQASLAAVSQQLAPREGISQEALHTQMLTAVQEISHLIEPLASAARAEASQLGHKVSQMAQYFEPLTLAAVGAASKTLSHPQQMALLDQTKTLAESALQLLYTAKEAGGNPKQAAHTQEALEEAVQMMTEAVEDLTTTLNEAASAAG | soluble |
| MIQRDIEYSGQYSKDVKLAQKRHKDMNKLKYLMTLLINNTLPLPAVYKDHPLQGSWKGYRDAHVEPDWILIYKLTDKLLRFERTGTHAALFGLEHHHHHH | soluble |
| MIPLMHDFEGETVLVVGGGSVGARKARTFATEASVVVLSPEFGDRTFADAEKVRAAPTPEDATDWVERTDPALVVAATDDSDLNGAFSTAAAEHGALVNRTDDHGDQSFGNIVVPATVRDDPVTLAIATGGRAPALSKHLRERFEDEFGNAGLMADLVGDLREDLRDRGVPPAKRRDAVRFVVRSREVWKALDSGRSKGEQVARDVIGELPGDQT | not soluble |
| MFRVQTLNQIAEKGLQVFTEERYEVGDRINHPDGILLRSYSLHQEEFSKDLKAIARAGAGVNNIPVERCTEKGIVVFNTPGANANAVKELIIASLIMSSRNIINGVSWTKNLEGEEVPQLVESGKKQFVGSEIAGKRLGVIGLGAIGALVANDALALGMDVIGYDPYISVETAWRLSTHVQRAFSLDEIFATCDYITLHIPLTNQTKGIIGEHAVEKMKRGMRLFNFSRGELVDEKVLQKALEEDIITHYVTDFPNENVIKMKNVTATPHLGASTSESEENCAVMAARQLREYLETGNIRNSVNYPNVELPYIGKKRITIMHQNVPNMVGQITGCLAEHHINIADMTNRSKHSWAYTMIDIDNGIDDIIKENIVENISKITGVVAVRMIV | not soluble |

// next entry
Please look up its soluble on expression in E. coli: "AMAISITCPPPMSVEHADIWVKSYSLYSRERYICNSGFKRKAGTSSLTECVLNKATNVAHWTTPSLKCIRDPALVHQRPAPPSTVTTAGVTPQPESLSPSGKEPAAS" soluble

====

# PROCEDURE SUMMARY: soluble on expression in E. coli; label from the status in PepcDB or PDB records
VALUE KIND: soluble on expression in E. coli

| SEQUENCE INPUT | VALUE KIND | REPORTED |
| --- | --- | --- |
| MSLDKDTVYAVVDIETTGTSVTDGDRIIQIGCVFVQHNQVINHFETDVNPLKEIPAAISRLTGITNKRVRHAPLFDDVAGTLYSLLTNTVFVAHNVNFDLPFINAELERVGYPALPIAAVDTVSLSQILLPTATSFRLRDLSRLFNIEHDNPHSADSDASATAELFIFLFRRLRALPMVTLQRMIDLQADLPLQTTTLFRVAQQLNEEGHHHHHH | soluble on expression in E. coli | not soluble |
| MGSDKIHHHHHHMEVIFKRPKALSDREFTYCPGCHHGIIHRLIAEVIDELDIQEKTIMVAPVGCSVFAYEFFDVDGTVAPHGRALAVATGIKRALPDMIVFTYQGDGDLAAIGIAETIHAANRGEKLTTIFVNNAVYGMTGGQMAPTTLLGQKTTTTPYGRTAANDGYPLHVSEALSTIDGVAYLERTTVSTTKDILNTKKAIKKAFLAQIKGLGFGMVEVLSTCPTNWGMSPVEAQNWLLENMVKEFPPKVFVDKVGD | soluble on expression in E. coli | not soluble |

====

# PROCEDURE SUMMARY: soluble on expression in E. coli; label from the status in PepcDB or PDB records
VALUE KIND: soluble on expression in E. coli

| SEQUENCE INPUT | soluble on expression in E. coli |
| --- | --- |
| MGSDKIHHHHHHMKLHQLRALVAIHNAGSILEASKLMHITQPALSRSIKELEREVGFTLLQRSHKGMALTEEGKRVIRHANLVVESIRRLQIEAASIQDAALGAVSIGVTSLTAMLDGVDESILAFRRKYPRVKITITDLRPSQILQRLRDGSLDFAITSQQPLSRLSLDWEALGSIKGRVICHASNRQKFSQSLRTLQYAPWISLDELSDQASQFHQLFEANGLRVPQNTVECTSVMMALKLLKNTESLMTISELAVDQGFTYGIDCEFVAMAVQELIPDYPINLVCIDRHSLTAPAQELFHSLRGQVLKQTRPVGSEVVVHA | not soluble |
| MAHHHHHHMLLRASASSTLRTRGASCCSGACTGLYGSGSLTVQQRFIEYWGSGVTGRTQPYAQGDMIPRVDNMRYPVNKATSAAASLTGNQSSIAYDTSSIFQVEGFSPLEKEHYQSLRGSTRHKVESLPPHIGKDVMVLLKNMSEEGLLEEHWWARVVKDFPSMKTPCTAEFKSAWEKFYTEASGVADDNEAVKAISRPFLQTQMQKNYIAYAMVWRVAERLCEAFDAVPHVTVYERRGGRLVVERVTKLMLDTIADEPWAHQETTSPLHVDISNFRAWHEAGYW | not soluble |
| MGSDKIHHHHHHMFDLNDLFYFVQVVECRGFAPASRKLGIPKSKLSRRIAGLEERLGVSLIHRSTRKFAVTESGRDYYGHCVAMLVEADAAEEAIQRSKSEPQGKVVISCPPAMAAMGINEAIAGFMAAHPKVQVHIESTNRRVDPLIENIDIALRVRFPPLEDDGLVVKTLGHSAQRLVAHPDLAALLPANASFEALARLPSLDVTSSTPEHRWLLENGPGHYVEVRHAPRLVSSDLDAILQAALQGVGVAQLPEILVREALQQGRMVELFDAHRPKCGILHAVFVSRRGLLPAVRGLLDAFESSFTELTHNPESLYCSLHRTNSRIQGD | not soluble |
| MLSGTRSRSSTKARKGTPRPPALSQSVYCGRRYTGPHTTFFFEITNDEYLLLSVLIFCNPALLQLSENGKLLLTIYRNLYCSALLQHCLLNNQKSGPARFTELLGVYQAIEVHYSDLANYIVLFQLNRPKVNQIVKNCFEAVT | not soluble |

Please look up its soluble on expression in E. coli: "VTLAAEPHPAPPQQPTVAWSEPDVDRRVEFWPTVAIRSALESGDIATWQRIAAALKRDPYGRTARQVEEVLEGIPATGIANAFWEVLDRARTHLDANERAEVARQVGLLLDRSGLQRQEFASRIGVTAQDLTAYLDGIVSPSASLMIRMRRLSDRFVRAKSVRAADS" soluble

Please look up its soluble on expression in E. coli: "MKPRIYVKVKPERLGAVIGPRGEVKAEIMRRTGTVITVDTENSMVIVEPEAEGIPPVNLMKAAEVVKAISLGFPPEKAFRLLEEDQILVVVDLKQVVGDSQNHLKRIKGRIIGEGGRARRTIEEMTDTYINVGEYEVAIIGDYERAMAAKQAIEMLAEGRMHSTVYRHLERIMREIKRRERLKMWAREEL" soluble
